System: NCI-H522
procedure-summary: NCI anticancer screening, Non-Small Cell Lung Cancer NCI-H522
Type: cell-based
measurement-setup: Homo sapiens; NCI-H522, 10 μM; read-out: % Growth Inhibition (GI %)
In this section we review reported inhibition at 10 µM values for a set of molecules.
Kindly provide the numeric value in % only, without the unit symbol.

// below: answered molecules
O=C(c1nc2ccccc2[nH]1)[C@H]1[C@H](c2ccc(Cl)cc2)C2CSCN2[C@]12C(=O)Nc1ccccc12 (stereo partly shown)
87.9
O=C(c1nc2ccccc2[nH]1)[C@H]1[C@H](c2ccc(C(F)(F)F)cc2)C2CSCN2[C@]12C(=O)Nc1ccccc12 (stereo partly shown)
87.7
O=C(c1nc2ccccc2[nH]1)[C@H]1[C@H](c2cccc(F)c2)C2CSCN2[C@]12C(=O)Nc1ccccc12 (stereo partly shown)
77.8
O=C(c1nc2ccccc2[nH]1)[C@H]1[C@H](c2ccc(Cl)cc2Cl)C2CSCN2[C@]12C(=O)Nc1ccccc12 (stereo partly shown)
71.7
O=C(c1nc2ccccc2[nH]1)[C@H]1[C@H](c2cccs2)C2CSCN2[C@]12C(=O)Nc1ccccc12 (stereo partly shown)
91.5
CN(C)c1ccc([C@@H]2C3CSCN3[C@]3(C(=O)Nc4ccccc43)[C@H]2C(=O)c2nc3ccccc3[nH]2)cc1 (stereo partly shown)
87.9

We now examine a further molecule.
IN: Give its inhibition at 10 µM value. Item: Cc1ccc([C@@H]2C3CSCN3[C@]3(C(=O)Nc4ccccc43)[C@H]2C(=O)c2nc3ccccc3[nH]2)cc1 (mixture of isomers)
OUT: 84.3
